Data origin: a melting point compilation (Tetko et al.; mined from patent text by program, amines drawn as free bases though some values may be those of a salt)

property.measured: melting point

compound	melting point
O=c1[nH]c2cc(Cl)cc(Cl)c2c(=O)n1Cc1cccc(F)c1	267 to 270 °C
Cc1cc(Oc2ccc(NC(=O)c3ccccc3C(c3ccc(O)cc3)c3ccc(O)cc3)cn2)cc(C)c1Cl	125 °C
C/C(=C\c1ccc(C(=O)N2CCOCC2)cc1)c1ccc2c(c1)C(C)(C)CCC2(C)C	143 to 144 °C
Cc1oc(-c2ccccc2)nc1COc1ccccc1COc1cccc(CC(=O)O)c1	104 to 105 °C
COc1ccc(S(=O)(=O)C2(Cc3ccccc3)SC(=O)N(CC(=O)NO)C2=O)cc1 (stereo not given)	81 to 85 °C
CCC1(CC)C(=O)N(C(C)(C)CC(C)(C)C)CC(C)(C)N1OC(C)(C)C#N	49 to 53 °C
CC(C)C1C(=O)N(CCl)S(=O)(=O)N1C (stereo not given)	118 to 120 °C
COc1cnc[nH]c1=O	206 to 208 °C
O=C(Nc1cccnc1NCC(O)c1ccccc1)c1ccc(Cl)cc1 (stereo not given)	157 to 159 °C

# get_value(readout='melting point', item= CC1COc2cc(-c3ccco3)ccc2C1=NO (stereo not given) )
175 to 177 °C
